Biological target: T1, VEGF-D (recombinant human; source not given) (human, UniProt O43915 89-205, limits assumed)
T1 construct: also used here as target of IC50 values averaged over Source 1 and Source 2; also called vascular endothelial growth factor-D
T1 sequence: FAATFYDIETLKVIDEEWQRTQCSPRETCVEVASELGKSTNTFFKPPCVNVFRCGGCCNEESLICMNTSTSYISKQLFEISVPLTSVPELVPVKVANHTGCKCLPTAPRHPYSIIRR
Experiment: SPR (BIAcore) off-rate ranking of scFv clones
OBSERVABLE: koff (s⁻¹)
Give just the number in s⁻¹; leave the unit off.

{"BINDER": "scFv clone AA16 (scFv) scFv: QAQLVQSGAEVKQPGASVKVSCKASGYTFTGYNMYWVRQAPGQGLEWMGYIDPYNGDTTYNQKFKGRVTMTTDTSTSTAYMELRSLRSDDTAVYYCARTSYYGGMDYWGRGTLVTVASGGGASGGGGSGGGGSDIVMTQTPLSSPVTLGQPASISCRSSQSLVHSNGNTYLHWLQQRPGQPPRLLIYKVSNRFSGVPDRFSGSGAGTDFTLKISRVEAEDVGVYYCSQSTHVPRTFGQGTKLEIKR", "OBSERVABLE": "koff", "MEASUREMENT UNITS": "s⁻¹", "MEAS VALUE": 0.00795}

Now take the following binder into account.
State its koff for this binder: scFv clone DE03 (scFv) scFv: QVQLVQSGAKVKQPGASVKASCKAGGYTFTGYNMYWVRQAPGQGLEWMGYIDPYNGDTTYNQKFKGRVTMTTDTSTSTAYMELRSLRSDDTAVYYCARTSYYGGMDYWGRGTLVTVASGGGASGGGGSGGGGSDIVMTQTPLSSPVTLGQPASISCRSSQSLVHSNGNTYLHWLQQRPGQPPRLLIYKVSNRFSGVPDRFSGSGAGTDFTLKISRVEAEDVGVYYCSQSTHVPRTFGQGTKLEIKR
0.00798
